Values compiled from ChEMBL document CHEMBL1130515.

# methodDescription: Half life was evaluated in rat at an intravenous dose of 3 mg/kg and peroral dose of 5 mg/kg
# Type: ADME, organism-based
# experimentalContext: in vivo
measure: half-life (h)
Use h as the unit, but write only the number.

Q: Consider the compound Clc1ccc(CN2CC=C(c3nc4ccccc4s3)CC2)cc1 . State its measured half-life.
Result: 3.1

###

# methodDescription: Half life was evaluated in rhesus monkey at an intravenous dose of 1 mg/kg and peroral dose of 1 mg/kg
# Format: ADME, organism-based, Macaca mulatta
# experimentalContext: in vivo
measure: half-life (h)
Use h as the unit, but write only the number.

Q: Consider the compound Clc1ccc(CN2CC=C(c3nc4ccccc4s3)CC2)cc1 . State its measured half-life.
Result: 4.7

###

# systemName: Dopamine receptors; D2 & D4 (Homo sapiens) (UniProt P14416+P21917)
# Sequence (P14416 whole entry, looked up, one chain of several): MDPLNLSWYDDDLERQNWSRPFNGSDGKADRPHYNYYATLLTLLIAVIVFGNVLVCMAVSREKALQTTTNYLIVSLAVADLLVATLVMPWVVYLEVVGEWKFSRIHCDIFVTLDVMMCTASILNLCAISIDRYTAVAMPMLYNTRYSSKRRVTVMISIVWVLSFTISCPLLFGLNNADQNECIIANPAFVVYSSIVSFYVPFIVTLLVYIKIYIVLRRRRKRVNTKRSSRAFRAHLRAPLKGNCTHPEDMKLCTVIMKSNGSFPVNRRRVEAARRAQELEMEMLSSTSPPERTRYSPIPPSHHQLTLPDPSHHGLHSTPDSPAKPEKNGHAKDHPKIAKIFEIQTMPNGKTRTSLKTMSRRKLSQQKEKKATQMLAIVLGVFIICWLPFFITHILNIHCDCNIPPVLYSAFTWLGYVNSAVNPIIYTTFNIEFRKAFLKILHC
# methodDescription: Ratio of dopamine D2/D4 receptor binding
# Assay type: protein assay
measure: Ratio
In your answer, state the number alone without any accompanying words.

Q: Tell me Ratio of C1=C(c2nc3ccccc3o2)CCN(Cc2ccccc2)C1 when tested on Dopamine receptors; D2 & D4 (Homo sapiens) (UniProt P14416+P21917).
Result: 3

Q: Tell me Ratio of Clc1ccc2[nH]c(C3=CCN(Cc4ccccc4)CC3)nc2c1 when tested on Dopamine receptors; D2 & D4 (Homo sapiens) (UniProt P14416+P21917).
Result: 23

Q: Tell me Ratio of Clc1ccc(CN2CC=C(c3nc4ccccc4[nH]3)CC2)cc1 when tested on Dopamine receptors; D2 & D4 (Homo sapiens) (UniProt P14416+P21917).
Result: 10

Q: Tell me Ratio of Clc1cccc(CN2CC=C(c3nc4ccccc4s3)CC2)c1 when tested on Dopamine receptors; D2 & D4 (Homo sapiens) (UniProt P14416+P21917).
Result: 42

###

Give Ratio for every item shown.
# systemName: Dopamine receptors; D2 & D4 (Homo sapiens) (UniProt P14416+P21917)
# methodDescription: Ratio of dopamine D2/D4 receptor binding
# Assay type: protein assay
In your answer, state the number alone without any accompanying words.

Q: Consider the compound C1=C(c2nc3ccccc3[nH]2)CCN(Cc2ccccc2)C1 . State its measured Ratio.
Result: 15

Q: Consider the compound Clc1ccc(CN2CC=C(c3nc4cc(Cl)ccc4s3)CC2)cc1 . State its measured Ratio.
Result: 97

Q: Consider the compound Clc1ccc(CN2CC=C(c3nc4cc(Cl)ccc4[nH]3)CC2)cc1 . State its measured Ratio.
Result: 33

Q: Consider the compound C1=C(c2nc3ccccc3s2)CCN(Cc2ccccc2)C1 . State its measured Ratio.
Result: 120

###

# systemName: D(4) dopamine receptor (Homo sapiens)
# Sequence (P21917 whole entry): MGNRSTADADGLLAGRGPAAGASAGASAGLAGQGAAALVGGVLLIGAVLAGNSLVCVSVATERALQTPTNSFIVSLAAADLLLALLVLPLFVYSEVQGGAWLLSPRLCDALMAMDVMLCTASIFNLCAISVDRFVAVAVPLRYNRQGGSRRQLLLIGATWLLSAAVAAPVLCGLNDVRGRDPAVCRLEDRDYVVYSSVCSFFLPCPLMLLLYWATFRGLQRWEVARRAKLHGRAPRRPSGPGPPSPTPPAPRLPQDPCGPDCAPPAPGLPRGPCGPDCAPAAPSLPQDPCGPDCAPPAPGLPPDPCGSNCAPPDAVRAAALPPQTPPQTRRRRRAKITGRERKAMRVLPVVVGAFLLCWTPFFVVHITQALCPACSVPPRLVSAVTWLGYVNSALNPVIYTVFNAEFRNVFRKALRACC
# methodDescription: Displacement of [3H]spiperone from human dopamine receptor subtype hD4 expressed in HEK293 cells
# Format: cell-based
pKi: −log10 of the molar value.
Mark Condition not met for pKi values under 8, and Condition met for everything at or above.

Q: Exam item: decide whether the reported pKi for Clc1ccccc1CN1CC=C(c2nc3ccccc3s2)CC1 is at least 8.
Result: Condition not met

Q: Exam item: decide whether the reported pKi for Clc1ccc(CN2CC=C(c3nc4cc(Cl)ccc4s3)CC2)cc1 is at least 8.
Result: Condition not met

Q: Exam item: decide whether the reported pKi for C1=C(c2nc3ccccc3o2)CCN(Cc2ccccc2)C1 is at least 8.
Result: Condition not met

Q: Exam item: decide whether the reported pKi for C1=C(c2nc3ccccc3[nH]2)CCN(Cc2ccccc2)C1 is at least 8.
Result: Condition not met

Q: Exam item: decide whether the reported pKi for Clc1ccc2sc(C3=CCN(Cc4ccccc4)CC3)nc2c1 is at least 8.
Result: Condition not met

Q: Exam item: decide whether the reported pKi for C1=C(c2nc3ccccc3s2)CCN(Cc2ccccc2)C1 is at least 8.
Result: Condition met

Q: Exam item: decide whether the reported pKi for Clc1ccc(CN2CC=C(c3nc4ccccc4[nH]3)CC2)cc1 is at least 8.
Result: Condition not met

Q: Exam item: decide whether the reported pKi for Clc1ccc(CN2CC=C(c3nc4ccccc4s3)CC2)cc1 is at least 8.
Result: Condition met

Q: Exam item: decide whether the reported pKi for Clc1ccc2[nH]c(C3=CCN(Cc4ccccc4)CC3)nc2c1 is at least 8.
Result: Condition not met

###

# methodDescription: Maximum concentration in plasma (Cmax) was evaluated in rat at an intravenous dose of 3 mg/kg and peroral dose of 5 mg/kg
# Format: ADME, organism-based
# experimentalContext: po
measure: Cmax (ng/mL)
Use ng/mL as the unit, but write only the number.

Q: Consider the molecule Clc1ccc(CN2CC=C(c3nc4ccccc4s3)CC2)cc1 . State its measured Cmax.
Result: 97

###

# systemName: D(3) dopamine receptor (Homo sapiens, UniProt P35462)
# Sequence (P35462 whole entry): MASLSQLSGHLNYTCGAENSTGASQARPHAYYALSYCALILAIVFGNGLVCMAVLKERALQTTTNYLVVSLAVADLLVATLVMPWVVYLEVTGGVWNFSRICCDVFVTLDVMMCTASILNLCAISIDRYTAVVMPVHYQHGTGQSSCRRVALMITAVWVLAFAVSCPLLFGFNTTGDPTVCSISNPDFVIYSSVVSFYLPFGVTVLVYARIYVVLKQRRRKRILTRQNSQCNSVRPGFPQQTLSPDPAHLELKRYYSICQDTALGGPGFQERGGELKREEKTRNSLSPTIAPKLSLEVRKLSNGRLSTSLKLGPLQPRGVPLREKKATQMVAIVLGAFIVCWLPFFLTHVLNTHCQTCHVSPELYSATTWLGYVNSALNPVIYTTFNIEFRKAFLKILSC
pKi: −log10 of the molar value.
Mark N for pKi values under 6, and Y for everything at or above.

Q: Exam item: decide whether the reported pKi for Clc1ccc2oc(C3=CCN(Cc4ccccc4)CC3)nc2c1 is at least 6.
Result: N

Q: Exam item: decide whether the reported pKi for Clc1ccc(CN2CC=C(c3nc4ccccc4[nH]3)CC2)cc1 is at least 6.
Result: N

Q: Exam item: decide whether the reported pKi for Clc1ccc(CN2CC=C(c3nc4cc(Cl)ccc4o3)CC2)cc1 is at least 6.
Result: N

Q: Exam item: decide whether the reported pKi for C1=C(c2nc3ccccc3s2)CCN(Cc2ccccc2)C1 is at least 6.
Result: Y

Q: Exam item: decide whether the reported pKi for C1=C(c2nc3ccccc3[nH]2)CCN(Cc2ccccc2)C1 is at least 6.
Result: N

Q: Exam item: decide whether the reported pKi for Clc1ccc(CN2CC=C(c3nc4ccccc4s3)CC2)cc1 is at least 6.
Result: N

Q: Exam item: decide whether the reported pKi for Clc1ccc2[nH]c(C3=CCN(Cc4ccccc4)CC3)nc2c1 is at least 6.
Result: N

Q: Exam item: decide whether the reported pKi for Clc1ccc2sc(C3=CCN(Cc4ccccc4)CC3)nc2c1 is at least 6.
Result: N

Q: Exam item: decide whether the reported pKi for Clc1cccc(CN2CC=C(c3nc4ccccc4s3)CC2)c1 is at least 6.
Result: Y

Q: Exam item: decide whether the reported pKi for C1=C(c2nc3ccccc3o2)CCN(Cc2ccccc2)C1 is at least 6.
Result: N

###

# methodDescription: Bioavailability was evaluated in rat at an intravenous dose of 3 mg/kg and peroral dose of 5 mg/kg
# Format: ADME, organism-based
# experimentalContext: in vivo, po, read-out: Bioavailabiility
measure: bioavailability (%)
Use % as the unit, but write only the number.

Q: Consider the compound Clc1ccc(CN2CC=C(c3nc4ccccc4s3)CC2)cc1 . State its measured bioavailability.
Result: 17

###

# systemName: Dopamine receptors; D2 & D4 (Homo sapiens) (UniProt P14416+P21917)
# methodDescription: Ratio of dopamine D2/D4 receptor binding
# Assay type: protein assay
measure: Ratio

Q: Tell me Ratio of Clc1ccc(CN2CC=C(c3nc4cc(Cl)ccc4o3)CC2)cc1 when tested on Dopamine receptors; D2 & D4 (Homo sapiens) (UniProt P14416+P21917).
Result: > 200

Q: Tell me Ratio of Clc1ccccc1CN1CC=C(c2nc3ccccc3s2)CC1 when tested on Dopamine receptors; D2 & D4 (Homo sapiens) (UniProt P14416+P21917).
Result: > 23

Q: Tell me Ratio of Clc1ccc2sc(C3=CCN(Cc4ccccc4)CC3)nc2c1 when tested on Dopamine receptors; D2 & D4 (Homo sapiens) (UniProt P14416+P21917).
Result: > 36

###

Give pKi for every item shown.
# systemName: D(4) dopamine receptor (Homo sapiens, UniProt P21917)
# Sequence (P21917 whole entry): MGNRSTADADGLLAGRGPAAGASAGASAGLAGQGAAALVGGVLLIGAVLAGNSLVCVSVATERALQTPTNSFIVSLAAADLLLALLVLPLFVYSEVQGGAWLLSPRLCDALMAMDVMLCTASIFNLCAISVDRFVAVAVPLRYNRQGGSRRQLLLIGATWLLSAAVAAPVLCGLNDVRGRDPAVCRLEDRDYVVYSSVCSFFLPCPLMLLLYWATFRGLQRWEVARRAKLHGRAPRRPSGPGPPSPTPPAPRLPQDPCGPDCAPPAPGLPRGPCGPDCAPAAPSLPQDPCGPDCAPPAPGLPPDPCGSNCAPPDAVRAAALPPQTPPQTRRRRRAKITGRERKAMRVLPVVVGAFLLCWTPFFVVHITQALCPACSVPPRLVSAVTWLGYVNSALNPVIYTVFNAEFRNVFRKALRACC
Would you please state pKi, meaning minus log10 of the concentration in mol/L, as a bare number?

Q: Consider the compound Clc1ccc(CN2CC=C(c3nc4cc(Cl)ccc4[nH]3)CC2)cc1 . State its measured pKi.
Result: 8.00

Q: Consider the compound Clc1ccc(CN2CC=C(c3nc4cc(Cl)ccc4o3)CC2)cc1 . State its measured pKi.
Result: 8.08

Q: Consider the compound Clc1cccc(CN2CC=C(c3nc4ccccc4s3)CC2)c1 . State its measured pKi.
Result: 8.09

Q: Consider the compound Clc1ccc2oc(C3=CCN(Cc4ccccc4)CC3)nc2c1 . State its measured pKi.
Result: 7.77
